remaining at 5 min, 1 µM values by entry
- procedure text: in vitro
- test conditions: male, mouse, microsomes, % remaining, Replicate 1 / Replicate 2
Note to self: number, then unit, no commentary.

Which remaining at 5 min, 1 µM value is on record for O=C(O)[C@@H]1Cc2c([nH]c3c(F)cccc23)[C@@H](c2ccc(Cl)cc2Cl)N1 [Compound 20d] ?
61.1%

Below: the item to evaluate.
Which remaining at 5 min, 1 µM value is on record for O=C(O)[C@@H]1Cc2c([nH]c3cc(F)ccc23)[C@@H](c2ccc(Cl)cc2Cl)N1 [Compound 20c] ?
90.9%

----------
- procedure text: in vivo
- test conditions: mouse, iv, 10 mg/kg
test readout: Vd (L/kg)
Write the answer as a number in L/kg, unit excluded.

Which Vd value is on record for O=C(O)[C@@H]1Cc2c([nH]c3ccccc23)[C@@H](c2ccc(Cl)cc2Cl)N1 [Compound 1, reference compound] ?
3.5

----------
- procedure text: in vivo
- test conditions: mouse, iv, 10 mg/kg
clearance values by entry
Write the answer as a number in mL/min/kg, unit excluded.

Which clearance value is on record for O=C(O)[C@@H]1Cc2c([nH]c3ccccc23)[C@@H](c2ccc(Cl)cc2Cl)N1 [Compound 1, reference compound] ?
12.1

Below: the item to evaluate.
Which clearance value is on record for O=C(O)[C@@H]1Cc2c([nH]c3cc(F)ccc23)[C@@H](c2ccc(Cl)cc2Cl)N1 [Compound 20c] ?
8.85
